Origin of measurements: PubChem BioAssay AID2060896

# Tested on: 941728-121-R-J1-PDC complex spheroid viability
# assayComment: Anticancer human tumor 941728-121-R-J1-PDC patient-derived lung adenocarcinoma cell line growth inhibition [RAS]
# protocolConditions: second compound 0.316 µM; first compound 0.00316 µM; active compounds read low
# Text: RAS pathway inhibitors in Combinations in Complex Spheroids A high-throughput screen of multi-cell type tumor spheroids was designed to identify active combinations of RAS pathway inhibitors and targeted small molecules. Complex spheroids include a stromal component modeled by human endothelial cells (HUVEC) and fibroblasts modeled by human mesenchymal stem cells (MSCs). […] Compounds. […] If the clinical Cmax for an agent had not been determined, the highest concentration tested was 10 microM. […]
parameter: viability, T/C (%)
// return numeric value only (unit: %, not printed)

Below are worked cases with known answers.
compound: CC(C)n1nc(-c2ccc3oc(N)nc3c2)c2c(N)ncnc21 + C#Cc1c(F)ccc2cc(O)cc(-c3ncc4c(N5CC6CCC(C5)N6)nc(OCC56CCCN5CC(F)C6)nc4c3F)c12
viability, T/C (%): 42
//
compound: Nc1ccn(C2OC(CO)C(O)C2(F)F)c(=O)n1 (stereo unspecified) + C#Cc1c(F)ccc2cc(O)cc(-c3ncc4c(N5CC6CCC(C5)N6)nc(OCC56CCCN5CC(F)C6)nc4c3F)c12
viability, T/C (%): 51
//
compound: C=CC(=O)Nc1cc(Nc2nccc(-c3cn(C)c4ccccc34)n2)c(OC)cc1N(C)CCN(C)C + C#Cc1c(F)ccc2cc(O)cc(-c3ncc4c(N5CC6CCC(C5)N6)nc(OCC56CCCN5CC(F)C6)nc4c3F)c12
viability, T/C (%): 56.1
//
compound: CCN1CCN(Cc2ccc(Nc3ncc(F)c(-c4cc(F)c5nc(C)n(C(C)C)c5c4)n3)nc2)CC1 + C=CC(=O)N1CCN(c2nc(OCC3CCCN3C)nc3c(F)c(-c4nc(N)cc(C)c4C(F)(F)F)c(Cl)cc23)C(C)C1
viability, T/C (%): 18
//
compound: O=C(c1ccc(F)c(F)c1Nc1ccc(I)cc1F)N1CC(O)([C@@H]2CCCCN2)C1 + C#Cc1c(F)ccc2cc(O)cc(-c3ncc4c(N5CC6CCC(C5)N6)nc(OCC56CCCN5CC(F)C6)nc4c3F)c12
viability, T/C (%): 47.9

API: the following record is the query input.
Any idea what viability, T/C was measured for C=CC(=O)Nc1cc(Nc2nccc(-c3cn(C)c4ccccc34)n2)c(OC)cc1N(C)CCN(C)C + C=CC(=O)N1CCN(c2nc(OCC3CCCN3C)nc3c(F)c(-c4nc(N)cc(C)c4C(F)(F)F)c(Cl)cc23)C(C)C1 ?
19.8

----------
# Test system: 941728-121-R-J1-PDC complex spheroid viability
# assayComment: Anticancer human tumor 941728-121-R-J1-PDC cell line growth inhibition [RAS];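 further: spheroids exposed to compounds for 7 days before readout; 100% = DMSO vehicle control viability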
# protocolConditions: second compound 0.0949 µM; first compound 3.16 µM; active compounds read low
parameter: viability, T/C (%)
Kindly provide the numeric value in % only, without the unit symbol.

Recorded results for 3 molecules are shown here.
molecule: Cc1nc(N2CCC3(CC2)COC(C)C3N)c(CO)nc1Sc1ccnc(N)c1Cl (centres undefined) + CCn1c(-c2cc(N3CCN(C)CC3)cnc2C(C)OC)c2c3cc(ccc31)-c1csc(n1)CC(NC(=O)C1CC1C)C(=O)N1CCCC(N1)C(=O)OCC(C)(C)C2
unitTag: %
viability, T/C: 9.5

molecule: CC1(O)CCCC1n1c(=O)c(C(F)F)cc2cnc(NC3CCN(S(C)(=O)=O)CC3)nc21 (centres undefined) + CCn1c(-c2cccnc2C(C)OC)c2c3cc(ccc31)N1CCOC(CC(NC(=O)C(C(C)C)N(C)C(=O)C3(F)CCN(C(=O)C#CC(C)(C)N(C)C)CC3)C(=O)N3CCCC(N3)C(=O)OCC(C)(C)C2)C1
unitTag: %
viability, T/C: 17.9

molecule: CC(=O)OC12COC1CC(O)C1(C)C(=O)C(O)C3=C(C)C(OC(=O)C(O)C(NC(=O)OC(C)(C)C)c4ccccc4)CC(O)(C(OC(=O)c4ccccc4)C21)C3(C)C (centres undefined) + CCn1c(-c2cccnc2C(C)OC)c2c3cc(ccc31)N1CCOC(CC(NC(=O)C(C(C)C)N(C)C(=O)C3(F)CCN(C(=O)C#CC(C)(C)N(C)C)CC3)C(=O)N3CCCC(N3)C(=O)OCC(C)(C)C2)C1
unitTag: %
viability, T/C: 13.6

// next item, viability, T/C requested
Quick one: viability, T/C of CC(C)NCC(C(=O)N1CCN(c2ncnc3c2C(C)CC3O)CC1)c1ccc(Cl)cc1 (centres undefined) + CCn1c(-c2cccnc2C(C)OC)c2c3cc(ccc31)N1CCOC(CC(NC(=O)C(C(C)C)N(C)C(=O)C3(F)CCN(C(=O)C#CC(C)(C)N(C)C)CC3)C(=O)N3CCCC(N3)C(=O)OCC(C)(C)C2)C1 ?
11.9
